Give Ag Score for every item shown.
TARGET: T1, RSV F protein (C-terminal truncated F protein secreted from a recombinant baculovirus) (respiratory syncytial virus (RSV), UniProt P03420 26-524)
T1 construct: also called F antigen; RSV F antigen
T1 sequence (P03420 26-109, chain 1 of 2): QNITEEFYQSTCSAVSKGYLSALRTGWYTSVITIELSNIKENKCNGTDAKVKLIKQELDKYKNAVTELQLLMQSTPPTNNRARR
T1 sequence (P03420 137-524, chain 2 of 2): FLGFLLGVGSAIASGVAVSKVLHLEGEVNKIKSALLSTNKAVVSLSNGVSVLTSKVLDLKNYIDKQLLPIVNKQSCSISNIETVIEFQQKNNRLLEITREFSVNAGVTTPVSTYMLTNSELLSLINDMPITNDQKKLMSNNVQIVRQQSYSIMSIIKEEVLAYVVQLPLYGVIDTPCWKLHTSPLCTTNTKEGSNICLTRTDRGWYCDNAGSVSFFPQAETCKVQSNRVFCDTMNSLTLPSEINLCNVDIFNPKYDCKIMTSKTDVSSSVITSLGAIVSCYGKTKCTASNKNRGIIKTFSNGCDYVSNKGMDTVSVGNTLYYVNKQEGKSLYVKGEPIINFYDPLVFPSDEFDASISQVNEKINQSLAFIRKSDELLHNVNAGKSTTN
ASSAY: ELISA titration of antibody on 500 ng RSV F antigen; qualitative score from titration curves
Please respond with the number in arbitrary score 0-4 and leave the unit unwritten.

Ask: Query: Ag Score; subject: clone 1 (AFSF) (Fab, V domains shown) VH: QVTLRESGPALVKPTQTLTLTCTFSGFSLSTAGMSVGWIRQPPGKALEWLADIWWDDKKDYNPSLKSRLTISKDTSKNQVVLKVTNMDPADTATYYCARSMITNFYFDVWGQGTTVTVSS VL: DIQMTQSPSTLSASVGDRVTITCSASSSVGYMHWYQQKPGKAPKLLIYDTSKLASGVPSRFSGSGSGTEFTLTISSLQPDDFATYYCFQGSFYPFTFGGGTKVEIK
Result: 4

Ask: Query: Ag Score; subject: clone 13 (SFFF) (antibody, V domains shown, also called 13 (n = 3)) VH: QVTLRESGPALVKPTQTLTLTCTFSGFSLSTSGMSVGWIRQPPGKALEWLADIWWDDKKDYNPSLKSRLTISKDTSKNQVVLKVTNMDPADTATYYCARSMITNFYFDVWGQGTTVTVSS VL: DIQMTQSPSTLSASVGDRVTITCSASSSVGYMHWYQQKPGKAPKLLIYDTFKLASGVPSRFSGSGSGTEFTLTISSLQPDDFATYYCFQGSFYPFTFGGGTKVEIK
Result: 2.5
